Collected IC50 values appear next to each entry.
Molecular target: T1, human ILT4 expressed on cells (human, UniProt Q8N423 22-597)
T1 construct: whole, on cells; also called CHO-S/ILT4 cells; ILT4-CHO cells
T1 sequence (Q8N423 22-597): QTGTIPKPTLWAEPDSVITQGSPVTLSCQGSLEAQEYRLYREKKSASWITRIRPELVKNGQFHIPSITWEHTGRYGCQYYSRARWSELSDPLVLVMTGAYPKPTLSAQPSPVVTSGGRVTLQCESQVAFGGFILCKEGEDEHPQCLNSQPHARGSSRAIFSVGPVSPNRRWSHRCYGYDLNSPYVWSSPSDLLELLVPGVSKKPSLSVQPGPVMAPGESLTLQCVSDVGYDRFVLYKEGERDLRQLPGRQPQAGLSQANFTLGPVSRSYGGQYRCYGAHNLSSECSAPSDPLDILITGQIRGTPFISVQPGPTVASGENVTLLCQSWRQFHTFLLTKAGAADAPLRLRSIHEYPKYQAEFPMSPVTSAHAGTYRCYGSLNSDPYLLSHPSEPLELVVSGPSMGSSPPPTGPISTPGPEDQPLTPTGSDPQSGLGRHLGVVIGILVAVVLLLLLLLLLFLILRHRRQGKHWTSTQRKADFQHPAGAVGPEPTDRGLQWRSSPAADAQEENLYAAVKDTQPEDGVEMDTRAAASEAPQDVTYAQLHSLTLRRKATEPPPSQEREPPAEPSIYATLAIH
Assay: flow cytometry on ILT4-CHO cells, unlabelled mAb titrated; competitor AF647-Hz156.03-LALA
Could you give me the number in µg/mL? Just the number is fine.

Example binders with recorded IC50:
>>> observed_value("Hz156.03-LALA (antibody, human IgG1, kappa, L234A L235A, V domains shown, Humanized L156S3, human IgG1 L234A/L235A, kappa) VH: QVQLVQSGAEVKKPGSSVKVSCKASGYTFTDYYMNWVRQAPGQGLEWIARIYPGVYRTHYNEKFKDRVTLTADKSTSTAYMELSSLRSEDTAVYYCARSGYYGGTYEEDAMDYWGQGTTVTVSS VL: DIQMTQSPSSLSASVGDRVTITCRASENIYSNLAWYQQKPGKAPKLLVYAATSLADGVPSRFSGSGSGTDYTLTISSLQPEDFATYYCQNFWDTPYTFGQGTKVEIKR")
0.422
>>> observed_value("J19h1 (antibody, V domains shown) VH: QITLKESGPTLVKPTQTLTLTCTFSGFSLNTYAMGVSWIRQPPGKALEWLASIWWNGNKYNNPSLKSRLTVTKDTSKNQVVLTMTNMDPVDTATYYCAHSRIIRFTDYVMDAWGQGTLVTVSS VL: DIQMTQSPSSLSTSVGDRVTITCRASEDIYNDLAWYQQKPGKAPKLLIYNANSLHTGVASRFSGSGSGTDFTFTISSLQPEDVATYFCQQYYDYPLTFGQGTKLEIKR")
0.0796
>>> observed_value("1E1 (antibody, V domains shown) VH: QVQLQQWGAGLLKPSETLSLTCAVYGGSFSGYYWSWIRQPPGKGLEWIGEINHSGSTNYNPSLKSRVTISVDTSKNQFSLKLSSVTAADTAVYYCARLPTRWVTTRYFDLWGRGTLVTVSS VL: QSVLTQPPSVSGAPGQRVTISCTGSSSNIGAGYDVHWYQQLPGTAPKLLIYGNSNRPSGVPDRFSVSKSGASASLAITGLQAEDEADYYCQSFDNSLSAYVFGGGTQLTVL")
0.336

Any idea what its IC50 is? The binder is Hz45.01-LALA (antibody, human IgG1, kappa, L234A L235A, V domains shown, Humanized L45S4, human IgG1 L234A/L235A, kappa; also called Humanized 45_01; Hu IgG 45_01 LALA) VH: QVQLVQSGAEVKKPGASVKVSCKASGYTFTDYYMNWVRQAPGQRLEWIGDINPNNGGTSYNQKFKGRATITVDTSASTAYMELSSLRSEDTAVYYCARGGAELTGTYWYFDVWGQGTTVTVSS VL: DIQMTQSPSSLSASVGDRVTITCRASENIYSNLAWYQQKPGKAPKVLVYGATNLADGVPSRFSGSGSGTEYTLTISSLQPEDFATYYCQHFWDSPFTFGGGTKVEIKR
0.381
